- EXPERIMENTAL_SYSTEM: Ras-related C3 botulinum toxin substrate 1 (Mus musculus)
- EXPERIMENT_NOTES: wildtype Rac1 GTP binding inhibitors, SAR follow-up, biochemical, oxadiazole analogs, multiplex bead flow cytometry (AID 2027)
- SETUP_CONDITIONS: inactive by the depositor's call
// boundary case: EC50 equal to 2 µM maps to f; strictly smaller maps to t

[in] Item "COc1ccccc1-c1noc(CCC(=O)N2CCN(c3cc(C)ccc3C)CC2)n1" : EC50 beneath 2 µM, strictly?
[out] f

[in] Confirm or reject: EC50 of "COc1ccc(-c2noc(CC(=O)N3CCN(c4cc(C)ccc4C)CC3)n2)cc1" lies strictly below 2 µM
[out] f

* * *

Kindly state pEC50 for each of the entries shown.
- EXPERIMENTAL_SYSTEM: Ras-related C3 botulinum toxin substrate 1 (Mus musculus)
- EXPERIMENT_NOTES: wildtype Rac1 GTP binding inhibitors, SAR follow-up, biochemical, oxadiazole analogs, multiplex bead flow cytometry (AID 2027)
Numbers only, as −log10 of the molar value.

Cc1ccc(-c2noc(CCC(=O)N3CCN(c4cc(C)ccc4C)CC3)n2)cc1
5.49

Could you report pEC50 for every entry in the following list?
1. COc1ccc(-c2noc(CCC(=O)N3CCN(c4ccccc4C(F)(F)F)CC3)n2)cc1
2. Cc1ccc(C)c(N2CCN(C(=O)CCc3nc(-c4cccc(F)c4)no3)CC2)c1 [KUC103366N]

[out]
1: 5.77; 2: 5.83

* * *

- EXPERIMENTAL_SYSTEM: Ras-related C3 botulinum toxin substrate 1 (Mus musculus, UniProt P63001)
- EXPERIMENT_NOTES: wildtype Rac1 GTP binding inhibitors, SAR follow-up, biochemical, oxadiazole analogs, multiplex bead flow cytometry (AID 2027)
Answer each item with its documented pEC50.
One number for each entry, as −log10 of the molar value.

Worked examples follow.
Cc1ccc(C)c(N2CCN(C(=O)CCc3nc(-c4ccccc4C(F)(F)F)no3)CC2)c1
5.68
Cc1ccc(C)c(N2CCN(C(=O)CCc3nc(-c4ccccc4C)no3)CC2)c1
5.76
Cc1ccc(C)c(N2CCN(C(=O)CCc3nc(-c4ccc(N(C)C)cc4)no3)CC2)c1 [KUC103409N]
5.56
COc1ccc(-c2noc(CCC(=O)N3CCN(c4cccc(C)c4C)CC3)n2)cc1
5.88

[in] In one line, give reported pEC50 of the entry Cc1ccc(C)c(N2CCN(C(=O)CCc3nc(-c4ccc(F)cc4)no3)CC2)c1 [KUC103364N] .
[out] 5.90

* * *

- EXPERIMENTAL_SYSTEM: Ras-related C3 botulinum toxin substrate 1 (Mus musculus)
- EXPERIMENT_NOTES: wildtype Rac1 GTP binding inhibitors, SAR follow-up, biochemical, oxadiazole analogs, multiplex bead flow cytometry (AID 2027)
MEASURE: EC50 (µM)
Numbers only, in µM.

Quick one: give me EC50 for each item below, same order please.
1. COc1ccc(-c2noc(CCC(=O)N3CCN(c4ccccc4C)CC3)n2)cc1
2. COc1ccc(-c2noc(CCC(=O)N3CCN(c4ccccc4Br)CC3)n2)cc1 [KUC103370N]
3. Cc1ccc(C)c(N2CCN(C(=O)CCc3nc(-c4ccc(C(F)(F)F)cc4)no3)CC2)c1
4. Cc1ccc(C)c(N2CCN(C(=O)CCc3nc(-c4cccc(Br)c4)no3)CC2)c1 [KUC103367N]

[out]
1.35
1.7
2.19
1.67

* * *

- EXPERIMENTAL_SYSTEM: Ras-related C3 botulinum toxin substrate 1 (Mus musculus)
- EXPERIMENT_NOTES: wildtype Rac1 GTP binding inhibitors, SAR follow-up, biochemical, oxadiazole analogs, multiplex bead flow cytometry (AID 2027)
- SETUP_CONDITIONS: inactive by the depositor's call
Assignment: determine reported EC50 for the given compounds.
Numbers only, in µM.

Would you please look over these solved cases?
COc1ccc(-c2noc(CCC(=O)N3CCN(c4ccc(Br)cc4)CC3)n2)cc1
0.257
COc1ccc(-c2noc(CCC(=O)N3CCN(c4ccccc4OC)CC3)n2)cc1
2.29
Cc1ccc(C)c(N2CCN(C(=O)CCc3nc(-c4ccccc4)no3)CC2)c1
1.64
COc1ccc(-c2noc(CCC(=O)N3CCN(c4ccc(C)cc4)CC3)n2)cc1
2.69
COc1ccc(-c2noc(CCC(=O)N3CCN(c4ccc(F)cc4)CC3)n2)cc1 [KUC103398N]
1.59

// next entry
[in] Give me measured EC50, please, for this compound: "COc1ccc(-c2noc(CCC(=O)N3CCN(c4ccc(OC)cc4)CC3)n2)cc1"
[out] 0.527

* * *

Assignment: determine reported EC50 for the given compounds.
- EXPERIMENTAL_SYSTEM: Ras-related C3 botulinum toxin substrate 1 (Mus musculus, UniProt P63001)
- EXPERIMENT_NOTES: wildtype Rac1 GTP binding inhibitors, SAR follow-up, biochemical, oxadiazole analogs, multiplex bead flow cytometry (AID 2027)

Look up EC50 for the entries below, preserving their order.
1. COc1ccc(-c2ccc(CCC(=O)N3CCN(c4cc(C)ccc4C)CC3)[nH]2)cc1
2. COc1ccc(-c2noc(CCCC(=O)N3CCN(c4cc(C)ccc4C)CC3)n2)cc1 [KUC103353N]
3. Cc1ccc(C)c(N2CCN(C(=O)CCc3nc(-c4ccccc4F)no3)CC2)c1 [KUC103401N]
4. COc1ccc(-c2noc(CCC(=O)N3CCN(c4cccc(F)c4)CC3)n2)cc1
5. COc1ccc(-c2noc(CCC(=O)N3CCN(c4cccc(Cl)c4)CC3)n2)cc1

[out]
1: > 30 µM; 2: 3.79 µM; 3: 1.82 µM; 4: > 30 µM; 5: > 30 µM

// batch mode: one EC50 value per listed entry
1. Cc1ccc(C)c(N2CCN(C(=O)CCc3nc(-c4ccc(Cl)cc4)no3)CC2)c1
2. Cc1ccc(C)c(N2CCN(C(=O)CCc3nc(-c4cccc(Cl)c4)no3)CC2)c1
3. COc1ccc(-c2ccc(CCC(=O)N3CCN(c4cc(C)ccc4C)CC3)s2)cc1
4. COc1ccc(-c2coc(CCC(=O)N3CCN(c4cc(C)ccc4C)CC3)n2)cc1
5. COc1ccc(-c2noc(CCC(=O)N3CCC(c4cc(C)ccc4C)CC3)n2)cc1 [KUC103432N]
6. COc1ccc(-c2noc(CCC(=O)N3CCN(c4ccc(C(F)(F)F)cc4)CC3)n2)cc1

[out]
["1.83 µM", "4.97 µM", "> 30 µM", "2.2 µM", "1.22 µM", "> 30 µM"]

* * *

For each entry below, report its EC50 value.
- EXPERIMENTAL_SYSTEM: Ras-related C3 botulinum toxin substrate 1 (Mus musculus)
- EXPERIMENT_NOTES: wildtype Rac1 GTP binding inhibitors, SAR follow-up, biochemical, oxadiazole analogs, multiplex bead flow cytometry (AID 2027)
Answers are plain numbers, in µM.

Solved entries (count: 2):
COc1ccc(-c2noc(CCCCC(=O)N3CCN(c4cc(C)ccc4C)CC3)n2)cc1
21
COc1ccc(-c2noc(CCC(=O)N3CCN(c4ccccc4Cl)CC3)n2)cc1
3.34

Alright, here's another compound for you.
[in] Answer with the recorded EC50 of "COc1ccc(-c2noc(CCC(=O)N3CCN(c4cc(C)ccc4C)CC3)n2)cc1" only.
[out] 5.08
